Entry source: ChEMBL document CHEMBL1131962

target: Nitric oxide synthase 3 (Homo sapiens, UniProt P29474)
Sequence (P29474 whole entry): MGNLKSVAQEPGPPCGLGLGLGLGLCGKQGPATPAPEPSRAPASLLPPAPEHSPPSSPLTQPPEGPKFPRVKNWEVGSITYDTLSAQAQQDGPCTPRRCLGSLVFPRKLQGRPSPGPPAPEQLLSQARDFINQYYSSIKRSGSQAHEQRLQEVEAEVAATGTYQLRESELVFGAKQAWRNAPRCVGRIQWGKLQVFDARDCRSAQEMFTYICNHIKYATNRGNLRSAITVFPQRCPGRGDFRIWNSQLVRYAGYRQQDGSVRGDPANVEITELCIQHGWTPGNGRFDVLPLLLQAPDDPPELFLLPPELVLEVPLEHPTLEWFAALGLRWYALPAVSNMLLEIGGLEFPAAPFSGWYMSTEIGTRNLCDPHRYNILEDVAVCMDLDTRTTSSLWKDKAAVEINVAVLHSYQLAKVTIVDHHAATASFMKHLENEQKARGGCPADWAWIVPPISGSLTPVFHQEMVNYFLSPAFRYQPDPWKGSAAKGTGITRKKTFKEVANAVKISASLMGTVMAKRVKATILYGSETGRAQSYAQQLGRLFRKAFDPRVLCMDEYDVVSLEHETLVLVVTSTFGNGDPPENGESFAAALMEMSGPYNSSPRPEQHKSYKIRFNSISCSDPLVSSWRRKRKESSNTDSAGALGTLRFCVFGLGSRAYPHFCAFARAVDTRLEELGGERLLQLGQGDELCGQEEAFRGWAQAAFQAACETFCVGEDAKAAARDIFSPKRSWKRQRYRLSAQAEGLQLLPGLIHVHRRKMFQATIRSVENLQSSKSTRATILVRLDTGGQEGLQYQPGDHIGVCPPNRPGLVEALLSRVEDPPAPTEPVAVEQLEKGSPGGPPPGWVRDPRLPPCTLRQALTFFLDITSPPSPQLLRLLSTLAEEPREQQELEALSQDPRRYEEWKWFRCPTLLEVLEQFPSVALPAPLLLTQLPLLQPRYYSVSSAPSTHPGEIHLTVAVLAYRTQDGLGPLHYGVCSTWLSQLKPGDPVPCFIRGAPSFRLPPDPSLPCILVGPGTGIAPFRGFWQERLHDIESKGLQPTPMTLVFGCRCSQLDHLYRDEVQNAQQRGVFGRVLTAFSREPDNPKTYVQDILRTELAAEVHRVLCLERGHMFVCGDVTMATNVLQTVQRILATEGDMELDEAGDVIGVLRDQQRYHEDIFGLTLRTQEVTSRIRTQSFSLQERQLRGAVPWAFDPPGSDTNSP
Quick list: IC50 per entry.
Reply with the number, then its unit.

Example molecules with recorded IC50:
>>> result("CC(C)NC(=O)CN1CCN(CCc2ccc(-c3cccc(N)n3)cc2)CC1")
"815 nM"
>>> result("Nc1cccc(-c2ccc(CCN3CCN(CC(=O)c4ccccc4)CC3)cc2)n1")
"887 nM"
>>> result("Nc1cccc(-c2ccc(CCN3CCN(C(=O)Cc4ccccc4)CC3)cc2)n1")
"685 nM"

Req: Record lookup: for Nitric oxide synthase 3 (Homo sapiens, UniProt P29474), what IC50 belongs to CC(C)CN1CCN(CCc2ccc(-c3cccc(N)n3)cc2)CC1 ?
Resp: 372 nM

Req: Record lookup: for Nitric oxide synthase 3 (Homo sapiens, UniProt P29474), what IC50 belongs to Nc1cccc(-c2ccc(CCN3CCN(CCc4ccccc4)CC3)cc2)n1 ?
Resp: 448 nM

Req: Record lookup: for Nitric oxide synthase 3 (Homo sapiens, UniProt P29474), what IC50 belongs to Nc1cccc(-c2ccc(CCN3CCN(c4cccc5cccnc45)CC3)cc2)n1 ?
Resp: 825 nM

* * *

molecular target: D(2) dopamine receptor (Homo sapiens, UniProt P14416); assay: Binding affinity of compound to Dopamine receptor D2
Sequence (P14416 whole entry): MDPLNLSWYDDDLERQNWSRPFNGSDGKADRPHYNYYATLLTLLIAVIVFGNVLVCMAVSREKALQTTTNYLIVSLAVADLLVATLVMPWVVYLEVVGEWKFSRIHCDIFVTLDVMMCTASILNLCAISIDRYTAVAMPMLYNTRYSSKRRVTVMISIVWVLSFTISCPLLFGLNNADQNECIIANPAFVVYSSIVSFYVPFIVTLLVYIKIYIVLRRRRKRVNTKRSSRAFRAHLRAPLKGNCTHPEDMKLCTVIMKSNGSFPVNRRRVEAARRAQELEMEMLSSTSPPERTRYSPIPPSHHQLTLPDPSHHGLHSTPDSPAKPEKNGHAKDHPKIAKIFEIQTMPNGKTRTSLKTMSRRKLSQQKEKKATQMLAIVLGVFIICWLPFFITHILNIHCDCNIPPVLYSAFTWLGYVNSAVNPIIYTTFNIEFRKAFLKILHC
Measurement type: IC50

Req: IC50 for Nc1cccc(-c2ccc(CCN3CCN(CC(=O)c4ccccc4)CC3)cc2)n1 ?
Resp: > 10 µM

* * *

target: 5-hydroxytryptamine receptor 2A (Homo sapiens, UniProt P28223)
Sequence (P28223 whole entry): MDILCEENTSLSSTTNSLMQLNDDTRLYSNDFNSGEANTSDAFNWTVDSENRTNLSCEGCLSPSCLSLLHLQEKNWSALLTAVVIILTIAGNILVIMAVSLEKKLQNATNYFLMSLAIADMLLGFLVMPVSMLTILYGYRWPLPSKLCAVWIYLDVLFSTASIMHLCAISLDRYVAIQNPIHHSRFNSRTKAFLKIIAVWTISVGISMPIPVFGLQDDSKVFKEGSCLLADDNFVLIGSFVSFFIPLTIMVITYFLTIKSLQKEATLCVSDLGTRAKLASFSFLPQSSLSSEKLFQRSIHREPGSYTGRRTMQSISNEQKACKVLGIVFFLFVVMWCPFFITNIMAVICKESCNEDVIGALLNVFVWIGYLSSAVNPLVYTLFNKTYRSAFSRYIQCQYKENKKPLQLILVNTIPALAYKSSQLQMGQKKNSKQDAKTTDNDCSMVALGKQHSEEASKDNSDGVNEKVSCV
Measurement type: pKi
Lab note: report pKi as minus log10 of the concentration in molar units, number only.

Req: Record lookup: for 5-hydroxytryptamine receptor 2A (Homo sapiens, UniProt P28223), what pKi belongs to Nc1cccc(-c2ccc(CCN3CCN(c4cccc5cccnc45)CC3)cc2)n1 ?
Resp: 7.85
